EC50 overview
# target_entity: T1, human GPC3 on cells (human, UniProt P51654 25-554)
# T1 construct: whole, on cells; over-expressed on CHOK1 cells or endogenous on HEPG2, Hep3B and Huh-7 hepatocellular carcinoma cells; the cell line is named under assay; also called GPC3-CHOK1 cells; human GPC3 over-expressed CHOK1 cells
# assay_explanation: FACS, Huh-7 cells

# binder, EC50
rows = [
    ("52H5D3B8-6#-VH4+VL1 (antibody, V domains shown, humanized) VH: QVQLVQSGAEVKKPGASVKVSCKALGYTFTDYEMHWVKQAPGQGLEWIGAIHPGSGGTAYNQKFKGRATMTADKFTSTVYMELSSLRSEDTAVYYCTRYYSYAYWGQGTLVTVSS VL: DIVMTQTPLSLSVTPGQPASISCRSSQSLVHSNGNTYLQWYLQKPGQSPQLLIYKVSNRFSGVPDRFSGSGSGTDFTLKISRVEAEDVGVYYCFQSIHVPYTFGGGTKLEIK", "0.0306 µg/mL"),
    ("52H5D3B8-6#-VH4+VL3 (antibody, V domains shown, humanized) VH: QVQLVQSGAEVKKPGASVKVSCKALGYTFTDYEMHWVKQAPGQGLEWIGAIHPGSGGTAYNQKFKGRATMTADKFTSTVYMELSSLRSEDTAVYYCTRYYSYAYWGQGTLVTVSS VL: DIVMTQTPLSLSVTPGQPASISCRSSQSLVHSNGNTYLQWYLQKPGQSPKLLIYKVSNRFSGVPDRFSGSGSGTDFTLKISRVEAEDVGVYYCFQSIHVPYTFGGGTKLEIK", "0.0287 µg/mL"),
    ("52H5D3B8-6#-VH3+VL3 (antibody, V domains shown, humanized) VH: QVQLVQSGAEVKKPGASVKVSCKALGYTFTDYEMHWVKQAPGQGLEWIGAIHPGSGGTAYNQKFKGRVTLTADTSTSTVYMELSSLRSEDTAVYYCTRYYSYAYWGQGTLVTVSS VL: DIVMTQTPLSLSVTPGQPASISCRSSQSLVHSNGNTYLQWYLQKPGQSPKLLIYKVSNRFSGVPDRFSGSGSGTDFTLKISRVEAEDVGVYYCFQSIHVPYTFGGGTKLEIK", "0.0351 µg/mL"),
    ("52H5D3B8-6#-VH3+VL4 (antibody, V domains shown, humanized) VH: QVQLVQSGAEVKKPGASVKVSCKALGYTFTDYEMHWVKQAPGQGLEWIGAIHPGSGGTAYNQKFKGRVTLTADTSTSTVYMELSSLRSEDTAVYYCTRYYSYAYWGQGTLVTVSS VL: DIVMTQTPLSLSVTPGQPASISCRSSQSLVHSNGNTYLQWYLQKPGQSPKLLIYKVSNRFSGVPDRFSGSGSGTDFTLKISRVEAEDVGVYFCFQSIHVPYTFGGGTKLEIK", "0.0322 µg/mL"),
]
